// provenance: ChEMBL document CHEMBL1697781

System: Hepatotoxicity
experiment: FDA HLAED, serum glutamic oxaloacetic transaminase (SGOT) increase
cond: human
measureName: SGOT Increase - Index Value
One number for each entry.

A selection of reference data follows.
For "Clc1ccc2c(c1)C(c1ccccc1)=NCc1nncn1-2" the molecule record lists SGOT Increase - Index Value as 0.8

For NC1=NC(=O)C(c2ccccc2)O1 (stereo not given) the molecule record lists SGOT Increase - Index Value as 22.7

For "Fc1ccccc1C1=NCC(=S)N(CC(F)(F)F)c2ccc(Cl)cc21" the molecule record lists SGOT Increase - Index Value as 0

List reported SGOT Increase - Index Value for each of these molecules:
1. COc1cccc2c1C(=O)c1c(O)c3c(c(O)c1C2=O)C[C@@](O)(C(C)=O)C[C@@H]3O[C@H]1C[C@H](N)[C@H](O)[C@H](C)O1
2. COc1ccc2[nH]c([S+]([O-])Cc3ncc(C)c(OC)c3C)nc2c1 (stereo not given)

1. 0
2. 1.2

----------
System: Hepatotoxicity
experiment: FDA HLAED, alkaline phosphatase increase
cond: human
measureName: Alkaline Phosphatase Increase - Number of Reports

For O=C1CC[C@@]2(O)[C@H]3Cc4ccc(O)c5c4[C@@]2(CCN3CC2CC2)[C@H]1O5 [NALTREXONE] the compound record lists Alkaline Phosphatase Increase - Number of Reports as < 4

For "Cc1ccc(Cl)c(Nc2ccccc2C(=O)O)c1Cl" the compound record lists Alkaline Phosphatase Increase - Number of Reports as < 4

For "Clc1ccc2c(c1)C(c1ccccc1)=NCc1nncn1-2" the compound record lists Alkaline Phosphatase Increase - Number of Reports as < 4

For "Nc1ccn([C@@H]2CS[C@H](CO)O2)c(=O)n1" the compound record lists Alkaline Phosphatase Increase - Number of Reports as >= 4

List reported Alkaline Phosphatase Increase - Number of Reports for each of these compounds:
1. C[C@H]1C[C@H]2[C@@H]3CCC4=CC(=O)C=C[C@]4(C)[C@@]3(F)[C@@H](O)C[C@]2(C)[C@@]1(O)C(=O)CCl
2. O=C(NCC1CCCCN1)c1cc(OCC(F)(F)F)ccc1OCC(F)(F)F (stereo unspecified) [FLECAINIDE]
3. COc1ccc(Cl)cc1C(=O)NCCc1ccc(S(=O)(=O)NC(=O)NC2CCCCC2)cc1 [GLYBURIDE]
4. C[C@]12CC[C@@H]3c4ccc(OC(=O)Cc5ccc(N(CCCl)CCCl)cc5)cc4CC[C@H]3[C@@H]1CC[C@@H]2OC(=O)Cc1ccc(N(CCCl)CCCl)cc1
5. CC(C)c1nc(CN(C)C(=O)N[C@H](C(=O)N[C@@H](Cc2ccccc2)C[C@H](O)[C@H](Cc2ccccc2)NC(=O)OCc2cncs2)C(C)C)cs1
6. CC(c1cc2ccccc2s1)N(O)C(N)=O (stereo unspecified)
7. C[C@]12CC[C@H]3[C@@H](CCC4=CC(=O)CC[C@@]43C)[C@@H]1CC[C@@H]2O
8. CC(C)(C)NCC(O)c1ccc(O)c(CO)n1 (stereo unspecified)

1. < 4
2. >= 4
3. >= 4
4. < 4
5. >= 4
6. >= 4
7. < 4
8. < 4

----------
System: Hepatotoxicity
experiment: FDA HLAED, alkaline phosphatase increase
cond: human
measureName: Alkaline Phosphatase Increase - Number of Reports

For Cc1cccc(C)c1OCC(C)N (stereo not given) the compound record lists Alkaline Phosphatase Increase - Number of Reports as >= 4

For "CC1=C(C(=O)O)N2C(=O)[C@@H](NC(=O)[C@H](N)c3ccc(O)cc3)[C@H]2SC1" the compound record lists Alkaline Phosphatase Increase - Number of Reports as < 4

For "NCC1(CC(=O)O)CCCCC1" the compound record lists Alkaline Phosphatase Increase - Number of Reports as >= 4

For "C[C@H](O)C(=O)Nc1c(I)c(C(=O)NC(CO)CO)c(I)c(C(=O)NC(CO)CO)c1I" the compound record lists Alkaline Phosphatase Increase - Number of Reports as < 4

For "Oc1ccc2c3c1O[C@H]1[C@@H](O)CC[C@@]4(O)[C@@H](C2)N(CC2CCC2)CC[C@]314" the compound record lists Alkaline Phosphatase Increase - Number of Reports as < 4

For CCCCNc1cc(C(=O)O)cc(S(N)(=O)=O)c1Oc1ccccc1 [BUMETANIDE] the compound record lists Alkaline Phosphatase Increase - Number of Reports as < 4

List reported Alkaline Phosphatase Increase - Number of Reports for each of these compounds:
1. CC(C)NCC(O)COc1ccc(CCOCC2CC2)cc1 (stereo not given)
2. O=P1(N(CCCl)CCCl)NCCCO1 (stereo not given) [CYCLOPHOSPHAMIDE ANHYDROUS]

1: < 4; 2: >= 4

List reported Alkaline Phosphatase Increase - Number of Reports for each of these compounds:
1. COc1cccc2c1C(=O)c1c(O)c3c(c(O)c1C2=O)C[C@@](O)(C(C)=O)C[C@@H]3O[C@H]1C[C@H](N)[C@H](O)[C@H](C)O1
2. CO/N=C(/C(=O)N[C@@H]1C(=O)N2C(C(=O)OC(C)OC(=O)C(C)(C)OC)=C(COC(N)=O)CS[C@H]12)c1ccco1 (stereo not given in full)
3. CC(C)c1ccc2oc3nc(N)c(C(=O)O)cc3c(=O)c2c1
4. CCC(=O)O[C@H]1CC[C@H]2[C@@H]3CCC4=CC(=O)CC[C@]4(C)[C@H]3CC[C@]12C [TESTOSTERONE PROPIONATE]
5. CC[C@H]1OC(=O)[C@H](C)[C@@H](O[C@H]2C[C@@](C)(OC)[C@@H](O)[C@H](C)O2)[C@H](C)[C@@H](O[C@@H]2O[C@H](C)C[C@H](N(C)C)[C@H]2O)[C@](C)(OC)C[C@@H](C)C(=O)[C@H](C)[C@@H](O)[C@]1(C)O
6. CCC(=O)[C@@]1(C)[C@H](C)C[C@H]2[C@@H]3CCC4=CC(=O)C=C[C@]4(C)[C@H]3[C@@H](O)C[C@@]21C [RIMEXOLONE]

1. < 4
2. < 4
3. < 4
4. < 4
5. >= 4
6. < 4

For "CC(C)(C)NC[C@H](O)COc1ccccc1C1CCCC1" the compound record lists Alkaline Phosphatase Increase - Number of Reports as < 4
